# target_of_assay: Src (p60^c-src, partially purified) (Homo sapiens)
# Construct: purchased UBI, Upstate Biotech, Inc
# Sequence (P12931 whole entry): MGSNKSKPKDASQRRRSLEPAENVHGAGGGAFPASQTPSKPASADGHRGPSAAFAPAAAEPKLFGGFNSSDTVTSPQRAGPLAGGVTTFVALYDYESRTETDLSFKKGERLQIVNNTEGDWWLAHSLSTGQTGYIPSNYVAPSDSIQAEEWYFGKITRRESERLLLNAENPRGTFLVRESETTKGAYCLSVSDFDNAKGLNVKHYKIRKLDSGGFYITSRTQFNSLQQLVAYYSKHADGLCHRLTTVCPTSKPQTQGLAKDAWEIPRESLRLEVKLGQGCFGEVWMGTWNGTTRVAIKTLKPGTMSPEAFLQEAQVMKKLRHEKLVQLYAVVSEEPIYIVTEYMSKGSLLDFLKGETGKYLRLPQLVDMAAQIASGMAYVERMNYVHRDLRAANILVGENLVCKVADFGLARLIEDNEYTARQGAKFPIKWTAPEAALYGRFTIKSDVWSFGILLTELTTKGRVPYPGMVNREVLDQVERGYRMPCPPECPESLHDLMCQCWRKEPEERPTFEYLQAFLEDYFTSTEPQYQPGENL
# test_method_notes: SRC-Inhibitor-Assay (time-resolved fluorescence kinase assay)
# Format: biochemical
# condition_info: ATP 5 μM; peptide 10 μM; enzyme 2.5 U/ml; enzyme pre-incubated with inhibitor 15 min at 15° C.
pIC50: −log10 of the molar value.
# key: entry, value: pIC50

>  <smiles_entry>
CCN(CC)CCOc1ccc(Nc2ncc3c(n2)N(C)C(=O)N(c2cc(NC(=O)CCCc4ccccc4)ccc2Cl)C3)cc1

>  <target_of_assay>
Src (p60^c-src, partially purified) (Homo sapiens)

>  <measurement_kind>
pIC50

>  <result>
7.30 to 7.82

$$$$

# ---- query compound ----
Form field: reported pIC50 of `CCN(CC)CCOc1ccc(Nc2ncc3c(n2)N(C)C(=O)N(c2cc(NC(=O)Cc4cccnc4)ccc2Cl)C3)cc1`
7.30 to 7.82

All figures here come from patent US7655651B2.
